# tested-system: Vitamin D3 receptor (Homo sapiens)
# protocol-details: Antagonist activity against 1-alpha,25-dihydroxy vitamin D3-induced HL60 cell differentiation by NBT reduction method relative to TEI-9647
# Format: functional, cell-based
# Set-up: scale not given: the % may be the effect or the level left
# measurement-context: HL-60
recorded-metric: Activity (%)

# sample-smiles, Activity, %
measured = [
    ("C=C1C(=O)O[C@H](C[C@@H](C)[C@H]2CC[C@H]3/C(=C/C=C4/C[C@@H](O)C[C@H](O)C4=C)CCC[C@]23C)[C@@H]1CC", 13),
]

(I) C=C1/C(=C\C=C2/CCC[C@]3(C)[C@@H]([C@H](C)C[C@@H]4OC(=O)C(=C)[C@@H]4CCCC)CC[C@@H]23)C[C@@H](O)[C@H](CCCO)[C@@H]1O
(II) C=C1/C(=C\C=C2/CCC[C@]3(C)[C@@H]([C@H](C)C[C@@H]4OC(=O)C(=C)[C@H]4CCC)CC[C@@H]23)C[C@@H](O)[C@H](OCCCO)[C@@H]1O
(III) C=C1/C(=C\C=C2/CCC[C@]3(C)[C@@H]([C@H](C)C[C@@H]4OC(=O)C(=C)[C@@H]4CC(C)C)CC[C@@H]23)C[C@@H](O)C[C@@H]1O
(IV) C=C1/C(=C\C=C2/CCC[C@]3(C)[C@@H]([C@H](C)C[C@H]4OC(=O)C(=C)[C@H]4CCCC)CC[C@@H]23)C[C@@H](O)[C@H](CCCO)[C@@H]1O
(V) C=C1/C(=C\C=C2/CCC[C@]3(C)[C@@H]([C@H](C)C[C@H]4OC(=O)C(=C)[C@H]4CC(C)C)CC[C@@H]23)C[C@@H](O)[C@H](CCCO)[C@@H]1O
Given 5 compounds, produce a descending ranking by Activity. Reply: labels, ordered per the request.
II, I, III, IV, V
(II: 12100%, I: 1160%, III: 174%, IV: 46%, V: 31%)
